Tested on: EC (URMC-2)
outcomeMeasure: MIC (µg/mL)
Give bare numbers, in µg/mL.

Here is how some compounds turned out for MIC.
compound | MIC (µg/mL)
CC(C)(O/N=C(\C(=O)N[C@@H]1C(=O)N2C(C(=O)O)=C(C=Cc3ccc(C[n+]4ccc(-c5ccc(O)c(O)c5)cc4)cc3)CS[C@H]12)c1csc(N)n1)C(=O)O (mixture of isomers) [Compound 412] | 4
CC(C)(O/N=C(\C(=O)N[C@@H]1C(=O)N2C(C(=O)O)=C(C=Cc3ccc(C[N+]4(C)CCc5c(Cl)c(O)c(O)c(Cl)c5C4)cc3)CS[C@H]12)c1csc(N)n1)C(=O)O (mixture of isomers) [Compound 429] | 0.13
CC(C)(O/N=C(\C(=O)N[C@@H]1C(=O)N2C(C(=O)O)=C(C=Cc3ccc(C[N+]4(C)CCc5cc(O)c(O)cc5C4)cc3)CS[C@H]12)c1csc(N)n1)C(=O)O (mixture of isomers) [Compound 407] | 0.25

IN: Return reported MIC; argument: CC(C)(O/N=C(\C(=O)N[C@@H]1C(=O)N2C(C(=O)O)=C(C=Cc3ccc(C[N+]4(C)CCc5ccc(O)c(O)c5C4)cc3)CS[C@H]12)c1csc(N)n1)C(=O)O (mixture of isomers) [Compound 442]
OUT: 0.13

----------
Tested on: Isogenic E. coli J58 strain carrying NDM-1
Experiment: MIC determination, isogenic E. coli strains
Assay type: cell-based
Conditions: Escherichia coli, 18 h, read-out: Mimimum Inhibitory Concentrations, NDM-1
outcomeMeasure: MIC

compound | MIC
CC(C)(O/N=C(\C(=O)N[C@@H]1C(=O)N2C(C(=O)O)=C(C=Cc3ccc(C[N+]4(C)Cc5c(Cl)c(O)c(O)c(Cl)c5C4)cc3)CS[C@H]12)c1csc(N)n1)C(=O)O (mixture of isomers) | > 64 µg/mL

IN: Could you tell me which MIC is on file for CC(C)(O/N=C(\C(=O)N[C@@H]1C(=O)N2C(C(=O)O)=C(C=Cc3ccc(C[N+]4(C)CCc5c(Cl)c(O)c(O)c(Cl)c5C4)cc3)CS[C@H]12)c1csc(N)n1)C(=O)O (mixture of isomers) ?
OUT: > 64 µg/mL

----------
Tested on: KP (Klebsiella pneumoniae)
Assay: MIC determination
Format: cell-based
Settings: first KP column of Table 3-1, CAMH broth, 20 μM Apo-Transferrin, 37° C., 18 hours
Procedure: Sterile technique was used throughout these experiments. Suspensions of organisms were removed from storage (−80° C.) and partially thawed. […] For each organism the MIC was determined by identifying the transparent well with the lowest test compound concentration.
Give measured Minimum Inhibitory Concentrations, KP for each item. Keep answers brief.
Numbers only, in microgram/mL.

molecule | systemName | u | valueObserved
CC(C)(O/N=C(\C(=O)N[C@@H]1C(=O)N2C(C(=O)O)=C(C=Cc3ccc(C[N+]4(C)Cc5c(Cl)c(O)c(O)c(Cl)c5C4)cc3)CS[C@H]12)c1csc(N)n1)C(=O)O (mixture of isomers) [Compound 431] | KP (Klebsiella pneumoniae) | microgram/mL | 0.13

Now for the molecule whose Minimum Inhibitory Concentrations, KP we want.
IN: Entry CC(C)(O/N=C(\C(=O)N[C@@H]1C(=O)N2C(C(=O)O)=C(C=Cc3ccc(C[N+]4(C)CCc5cc(O)c(O)cc5C4)cc3)CS[C@H]12)c1csc(N)n1)C(=O)O (mixture of isomers) [Compound 407] , system KP (Klebsiella pneumoniae): what Minimum Inhibitory Concentrations, KP was measured?
OUT: 0.25

----------
Test system: CF (RR -1)
Test: MIC determination
Format: cell-based, Citrobacter freundii
Details: CAMH broth, 20 μM Apo-Transferrin, 37° C., 18 hours
outcomeMeasure: Mimimum Inhibitory Concentrations, CF (RR -1) (microgram/mL)
Answers are plain numbers, in microgram/mL.

Guide cases for Mimimum Inhibitory Concentrations, CF (RR -1), answers given:
compound | u | valueObserved
CC(C)(O/N=C(\C(=O)N[C@@H]1C(=O)N2C(C(=O)O)=C(C=Cc3ccc(C[N+]4(C)Cc5cc(O)c(O)c(Cl)c5C4)cc3)CS[C@H]12)c1csc(N)n1)C(=O)O (mixture of isomers) | microgram/mL | 0.5
CC(C)(O/N=C(\C(=O)N[C@@H]1C(=O)N2C(C(=O)O)=C(C=Cc3ccc(C[N+]4(C)Cc5c(Cl)c(O)c(O)c(Cl)c5C4)cc3)CS[C@H]12)c1csc(N)n1)C(=O)O (mixture of isomers) | microgram/mL | 1
CC(C)(O/N=C(\C(=O)N[C@@H]1C(=O)N2C(C(=O)O)=C(C=Cc3ccc(C[N+]4(C)CCc5ccc(O)c(O)c5C4)cc3)CS[C@H]12)c1csc(N)n1)C(=O)O (mixture of isomers) | microgram/mL | 0.25

Next compound, Mimimum Inhibitory Concentrations, CF (RR -1) to be filled in.
IN: Data request, read-out Mimimum Inhibitory Concentrations, CF (RR -1), for CC(C)(O/N=C(\C(=O)N[C@@H]1C(=O)N2C(C(=O)O)=C(C=Cc3ccc(C[N+]4(C)CCc5cc(O)c(O)cc5C4)cc3)CS[C@H]12)c1csc(N)n1)C(=O)O (mixture of isomers)
OUT: 0.13

----------
System: KP (URMC-1)
Experiment: MIC determination
Type: cell-based, Klebsiella pneumoniae
Conditions: CAMH broth, 20 μM Apo-Transferrin, 37° C., 18 hours
Procedure: Sterile technique was used throughout these experiments. Suspensions of organisms were removed from storage (−80° C.) and partially thawed. […] For each organism the MIC was determined by identifying the transparent well with the lowest test compound concentration.
outcomeMeasure: Minimum Inhibitory Concentrations, KP (URMC-1)

Worked cases, answers included:
compound | valueObserved
CC(C)(O/N=C(\C(=O)N[C@@H]1C(=O)N2C(C(=O)O)=C(C=Cc3ccc(C[n+]4ccc5cc(O)c(O)cc5c4)cc3)CS[C@H]12)c1csc(N)n1)C(=O)O (mixture of isomers) [Compound 435] | ≤0.06 microgram/mL
CC(C)(O/N=C(\C(=O)N[C@@H]1C(=O)N2C(C(=O)O)=C(C=Cc3ccc(C[n+]4ccc(-c5ccc(O)c(O)c5)cc4)cc3)CS[C@H]12)c1csc(N)n1)C(=O)O (mixture of isomers) [Compound 412] | ≤0.06 microgram/mL

IN: Form field: Minimum Inhibitory Concentrations, KP (URMC-1) recorded for CC(C)(O/N=C(\C(=O)N[C@@H]1C(=O)N2C(C(=O)O)=C(C=Cc3ccc(C[N+]4(C)CCc5ccc(O)c(O)c5C4)cc3)CS[C@H]12)c1csc(N)n1)C(=O)O (mixture of isomers) [Compound 442] with KP (URMC-1) (enter value)
OUT: 0.13 microgram/mL

----------
Provide the reported Mimimum Inhibitory Concentrations, PM (RR -1) of each item.
Tested on: PM (RR -1)
Test: MIC determination
Format: cell-based, Proteus mirabilis
Details: CAMH broth, 20 μM Apo-Transferrin, 37° C., 18 hours

Hello, I would appreciate it if you could give Mimimum Inhibitory Concentrations, PM (RR -1) for each entry below.
1. CC(C)(O/N=C(\C(=O)N[C@@H]1C(=O)N2C(C(=O)O)=C(C=Cc3ccc(C[n+]4ccc(-c5ccc(O)c(O)c5)cc4)cc3)CS[C@H]12)c1csc(N)n1)C(=O)O (mixture of isomers) [Compound 412]
2. CC(C)(O/N=C(\C(=O)N[C@@H]1C(=O)N2C(C(=O)O)=C(C=Cc3ccc(C[N+]4(C)Cc5c(Cl)c(O)c(O)c(Cl)c5C4)cc3)CS[C@H]12)c1csc(N)n1)C(=O)O (mixture of isomers) [Compound 431]

OUT:
["≤0.06 microgram/mL", "≤0.06 microgram/mL"]

----------
Tested on: KP (Klebsiella pneumoniae)
Assay: MIC determination
Assay type: cell-based
Conditions: first KP column of Table 3-1, CAMH broth, 20 μM Apo-Transferrin, 37° C., 18 hours
outcomeMeasure: Minimum Inhibitory Concentrations, KP (microgram/mL)
Numbers only, in microgram/mL.

Known results for molecules:
molecule | valueObserved
CC(C)(O/N=C(\C(=O)N[C@@H]1C(=O)N2C(C(=O)O)=C(C=Cc3ccc(C[N+]4(C)Cc5cc(O)c(O)c(Cl)c5C4)cc3)CS[C@H]12)c1csc(N)n1)C(=O)O (mixture of isomers) | 1
CC(C)(O/N=C(\C(=O)N[C@@H]1C(=O)N2C(C(=O)O)=C(C=Cc3ccc(C[N+]4(C)CCc5c(Cl)c(O)c(O)c(Cl)c5C4)cc3)CS[C@H]12)c1csc(N)n1)C(=O)O (mixture of isomers) | 1

Now turn to the next molecule.
IN: Recorded Minimum Inhibitory Concentrations, KP for CC(C)(O/N=C(\C(=O)N[C@@H]1C(=O)N2C(C(=O)O)=C(C=Cc3ccc(C[n+]4ccc(-c5ccc(O)c(O)c5)cc4)cc3)CS[C@H]12)c1csc(N)n1)C(=O)O (mixture of isomers) , please?
OUT: 2

----------
System: Isogenic E. coli J58 strain carrying NDM-1
Assay: MIC determination, isogenic E. coli strains
Assay type: cell-based
Settings: Escherichia coli, 18 h, read-out: Mimimum Inhibitory Concentrations, NDM-1
Consider the following compounds; for each one, report its MIC.

Previously resolved entries follow.
compound | MIC
Cc1c[n+](Cc2ccc(C=CC3=C(C(=O)O)N4C(=O)[C@@H](NC(=O)/C(=N\OC(C)(C)C(=O)O)c5csc(N)n5)[C@H]4SC3)cc2)ccc1-c1ccc(O)c(O)c1 (mixture of isomers) | > 64 µg/mL
CC(C)(O/N=C(\C(=O)N[C@@H]1C(=O)N2C(C(=O)O)=C(C=Cc3ccc(C[N+](C)(C)Cc4ccc(O)c(O)c4)cc3)CS[C@H]12)c1csc(N)n1)C(=O)O (mixture of isomers) | > 64 µg/mL
CC(C)(O/N=C(\C(=O)N[C@@H]1C(=O)N2C(C(=O)O)=C(C=Cc3ccc(C[N+]4(C)CCc5cc(O)c(O)cc5C4)cc3[N+](=O)[O-])CS[C@H]12)c1csc(N)n1)C(=O)O (mixture of isomers) | > 64 µg/mL
CC(C)(O/N=C(\C(=O)N[C@@H]1C(=O)N2C(C(=O)O)=C(C=Cc3ccc(C[N+]4(C)CCc5c(ccc(O)c5O)C4)cc3)CS[C@H]12)c1csc(N)n1)C(=O)O (mixture of isomers) | > 64 µg/mL
CC(C)(O/N=C(\C(=O)N[C@@H]1C(=O)N2C(C(=O)O)=C(/C=C/c3ccc(C[n+]4ccn(-c5ccc(O)c(O)c5)c4)cc3)CS[C@H]12)c1csc(N)n1)C(=O)O | > 64 µg/mL

I would be grateful if you could provide MIC for each of the following entries.
1. Cn1c[n+](Cc2ccc(C=CC3=C(C(=O)O)N4C(=O)[C@@H](NC(=O)/C(=N\OC(C)(C)C(=O)O)c5csc(N)n5)[C@H]4SC3)cc2)cc1C(=O)Nc1ccc(O)c(O)c1 (mixture of isomers)
2. CC[N+]1(Cc2ccc(C=CC3=C(C(=O)O)N4C(=O)[C@@H](NC(=O)/C(=N\OC(C)(C)C(=O)O)c5csc(N)n5)[C@H]4SC3)cc2)CCc2cc(O)c(O)cc2C1 (mixture of isomers)

OUT:
1. > 64 µg/mL
2. > 64 µg/mL

Lab note: each compound below needs its MIC filled in.
1. Cn1c[n+](Cc2ccc(C=CC3=C(C(=O)O)N4C(=O)[C@@H](NC(=O)/C(=N\OC(C)(C)C(=O)O)c5csc(N)n5)[C@H]4SC3)cc2)c2cc(O)c(O)cc21 (mixture of isomers)
2. C#CC[N+]1(Cc2ccc(C=CC3=C(C(=O)O)N4C(=O)[C@@H](NC(=O)/C(=N\OC(C)(C)C(=O)O)c5csc(N)n5)[C@H]4SC3)cc2)CCc2cc(O)c(O)cc2C1 (mixture of isomers)

OUT:
> 64 µg/mL
> 64 µg/mL

Hey, just so you know, these numbers are from patent US20190100534A1.
